Biological target: Dickkopf-related protein 1 (Homo sapiens) (UniProt O94907)
Sequence (O94907 whole entry, looked up): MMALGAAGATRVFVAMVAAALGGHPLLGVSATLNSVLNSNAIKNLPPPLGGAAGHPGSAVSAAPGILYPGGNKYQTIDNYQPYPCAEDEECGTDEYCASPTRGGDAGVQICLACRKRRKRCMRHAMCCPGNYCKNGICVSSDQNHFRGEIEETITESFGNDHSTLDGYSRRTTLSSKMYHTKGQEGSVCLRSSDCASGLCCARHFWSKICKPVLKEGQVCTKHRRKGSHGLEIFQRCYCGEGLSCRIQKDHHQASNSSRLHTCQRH
Experiment: DKK1 binders on small-molecule microarrays, primary screen, biochemical, small-molecule microarray, 635 nm fluorescence scan (AID 1106);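 note: score merges emission near 667 nm with signal to noise over three replicate slides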
Details: DKK1 binding, higher = more signal
test readout: composite z-score
Write no unit; give the number alone.

Example entries and their recorded answers appear below.
CCOC(=O)C[C@H]1[C@H](OC(=O)c2ccc(C(=O)c3ccccc3)cc2)[C@@H](NC(=O)c2ccc3ccccc3c2)c2cc(OCCCO)ccc2N1C(=O)Cc1ccc(OC)cc1 : -0.213
Cc1ccc(N2C(=O)c3ccccc3[C@@H](C(=O)NC3CC3)[C@@H]2c2ccc(CO)cc2)nc1 : -2.23

In the following, a different compound is considered.
Prompt line: Assign composite z-score to the following record: `CC(C)NC(=O)[C@@]1(c2ccc([N+](=O)[O-])cc2)CC(=O)N(C2CCCCC2)[C@@H]1c1ccc(CO)cc1I`
Response line: -0.566
